Measured PAD2 conversion: 2 Cit values are reported for all entries that follow.
molecular target: PAD2 (Homo sapiens); test: Citrullination of synthetic peptides by recombinant human PAD2 (MALDI-TOF and ESI-Q-TOF mass spectrometry); type: biochemical; set-up: His6; made in house; conditions: share of peptide with two citrullines
Sequence (Q9Y2J8 whole entry): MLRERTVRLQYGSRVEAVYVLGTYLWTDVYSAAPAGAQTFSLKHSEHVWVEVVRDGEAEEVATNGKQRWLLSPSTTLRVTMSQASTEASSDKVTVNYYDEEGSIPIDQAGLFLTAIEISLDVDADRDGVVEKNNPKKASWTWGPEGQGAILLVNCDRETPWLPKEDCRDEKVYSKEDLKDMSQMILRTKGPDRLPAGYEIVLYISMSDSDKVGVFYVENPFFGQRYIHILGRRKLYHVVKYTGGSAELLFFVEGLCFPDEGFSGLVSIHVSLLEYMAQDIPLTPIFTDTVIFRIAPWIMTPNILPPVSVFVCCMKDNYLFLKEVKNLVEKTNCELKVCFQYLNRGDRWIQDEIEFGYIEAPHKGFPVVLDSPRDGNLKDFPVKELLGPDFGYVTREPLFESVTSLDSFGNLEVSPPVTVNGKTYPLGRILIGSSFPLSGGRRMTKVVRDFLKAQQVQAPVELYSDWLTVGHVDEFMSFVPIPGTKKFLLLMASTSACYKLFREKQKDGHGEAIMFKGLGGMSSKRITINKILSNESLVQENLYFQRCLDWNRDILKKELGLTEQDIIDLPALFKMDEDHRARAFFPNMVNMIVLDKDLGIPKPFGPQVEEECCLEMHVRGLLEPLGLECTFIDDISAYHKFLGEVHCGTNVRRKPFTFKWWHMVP
Provide the reading as a plain figure in %.

Here's what some known entries look like.
- RESIDUES: "IEIITDRQSGKKR [SEQ ID NO: 7]"
  OBSERVED_RESULT: 25
- RESIDUES: "DSRFYWRGGGKSD [SEQ ID NO: 10]"
  OBSERVED_RESULT: 73
- RESIDUES: "DSYRSWRDGYYSD [SEQ ID NO: 4]"
  OBSERVED_RESULT: 55
- RESIDUES: "IEIMTDRGSGKKR [SEQ ID NO: 5]"
  OBSERVED_RESULT: 60

Please give the measured PAD2 conversion: 2 Cit for this sequence: IGSRGDRSGFGKF [SEQ ID NO: 6]
4
